Just for reference, PubChem BioAssay (NCI) is where these values come from.

I'd appreciate it if you could supply GI50 values for the items below.
test system: KM12 colon; experiment: NCI tumour cell line growth inhibition, 48 h
Where a SMILES comes first, the peptide text is derived from it. [ ]: non-standard residue; d: D form. NMeY = CN[C@@H](Cc1ccc(O)cc1)C(=O)O; dNMeF = CN[C@H](Cc1ccccc1)C(=O)O; Sar = CNCC(=O)O

molecule	obs-value
CCC[CH2][Ge]([CH2]CCC)([CH2]CCC)[O]C(=O)C(O)c1ccccc1 (centres undefined)	2960 nM
ICCC(c1ccccc1)(c1ccccc1)c1ccccc1	4450 nM
CC[C@H](C)[C@@H]1NC(=O)[C@H](Cc2ccc(O)cc2)N(C)C(=O)[C@H](Cc2ccccc2)NC(=O)CN(C)C(=O)[C@@H]2CCCN2C(=O)[C@@H](Cc2ccccc2)N(C)C(=O)[C@H](CC(C)C)NC1=O (cyclo(F[NMeY]IL[dNMeF]P[Sar]))	271 nM

Kindly review the next molecule as well.
Param item: COc1ccc(/C=C/C(=O)c2ccc3cc(OC)c(OC)cc3c2)cc1OC ; param system: KM12 colon; output GI50: 2690 nM

###

test system: NCI-H522 lung; assay: NCI tumour cell line growth inhibition, 48 h
Classification field: True = TGI at or over 3 µM; False = TGI under 3 µM.

Check out these entries, answers already filled in.
compound	category
CCOC(=O)c1ccc(Nc2sc(C(=O)c3cccc([N+](=O)[O-])c3)c(N)c2C#N)cc1	False
Cc1ccc(S(=O)(=O)SCc2ccccc2CSS(=O)(=O)c2ccc(C)cc2)cc1	True
CCN(CC)CCOC(=O)CCN1CC2CCC(CC2)C1	True
CO[C@H]1C[C@@H]2CC[C@@H](C)[C@@](O)(O2)C(=O)C(=O)N2CCCC[C@H]2C(=O)O[C@H]([C@H](C)C[C@@H]2CC[C@@H](OP(C)(C)=O)[C@H](OC)C2)CC(=O)[C@H](C)/C=C(\C)[C@@H](O)[C@@H](OC)C(=O)[C@H](C)C[C@H](C)/C=C/C=C/C=C/1C	True
CCCCCCCCCCCCCCCCOCC(COP(=O)([O-])OCC[n+]1ccc(N(C)C)cc1)OCC (stereo not drawn)	True

Now turn to the next compound.
Reported TGI at or above 3 µM? CC#Cc1cc2c(cc1O)CC[C@@H]1[C@@H]2CC[C@]2(C)[C@@H](O)CC[C@@H]12
False

###

tested on: IGROV1 ovarian; assay: NCI tumour cell line growth inhibition, 48 h
I'd appreciate it if you could supply TGI values for the items below.
Answers are plain numbers, in µM.

Here's what some known entries look like.
compound	target-desc	readout-kind	obs-value
c1ccc(-c2nnc(Nc3ccc4c(c3)OCCO4)o2)c(NCc2ccncc2)c1	IGROV1 ovarian	TGI	19.1
N#CSCc1c(Cl)cccc1Cl	IGROV1 ovarian	TGI	7.2

Kindly review the next compound as well.
For this compound ( CO[C@@H]1C=C[C@@]23c4cc5c(cc4C(O)N(CC2O)C3C1)OCO5 (stereo partly specified) ), measured TGI is 68.9

###

test system: CCRF-CEM leukemia; assay: NCI tumour cell line growth inhibition, 48 h
readout-kind: TGI (µM)
One number for each entry, in µM.

Here's what some known entries look like.
compound	target-desc	TGI, µM
COc1cc2ccnc3c2c(c1OC)-c1ccc(=O)ccc1-3	CCRF-CEM leukemia	41.7
O=Cc1ccc(Oc2c3ccccc3nc3occc23)cc1	CCRF-CEM leukemia	35.4
O=C1c2cscc2C(=O)C1(O)O	CCRF-CEM leukemia	52.9

Would you mind listing TGI for each of the following compounds?
1. CC1(O)CC2(O)C=CC3=C(C(=O)c4cccc(O)c4C3=O)C2(O)C(=O)C1O (stereo not given)
2. Cc1cc2c3ccccc3ccc2[n+]2ccccc12

1. 2.87
2. 35.2

###

system: M19-MEL melanoma; experiment: NCI tumour cell line growth inhibition, 48 h
readout-kind: TGI

Here's what some known entries look like.
compound	obs-value
O=C(Nc1nc2ccccc2n1Cc1ccc(Cl)cc1)NC12CC3CC(CC(C3)C1)C2	> 100 µM
COC(=O)c1c2c(c(-c3ccccc3)c3c1-c1nc(Cl)ccc1CC3)CCc1ccc(Cl)nc1-2	> 100 µM
NCCCC1NC(=O)/C(=C(O)/C=C/C2CCC[C@@H]2CC2SCCS2)C1=O (some centres not stated)	> 100 µM
COc1cc2c(c(OC)c1OC)-c1ccc(SC)c(=O)cc1[C@@H](NCc1cccc(C#N)c1)CC2	42.4 µM

Would you mind listing TGI for each of the following compounds?
1. O=C(CC(=O)Nc1ccccc1O)Nc1ccccc1O
2. NC(=S)NNC(=O)CCC(=O)Nc1ccc(Cl)cc1Cl
3. Cc1ccc(NC(=O)CC/C(CC(=O)c2ccc(F)cc2)=N\NC(=O)C(=O)NN)cc1C
4. COc1cc(C)c2c(=O)c3c(oc2c1)C(=O)c1c(O)c(OC)cc(O)c1C3=O

28.4 µM
> 100 µM
> 100 µM
4.04 µM

Would you mind listing TGI for each of the following compounds?
1. Cc1ccc2c(c1)SC(c1cc3c(cc1Br)OCO3)S2 (configuration not stated)
2. COc1cc(C(=O)C/C(CCC(=O)Nc2ccc(Cl)cc2Cl)=N/NC(=O)C(N)=O)ccc1O
3. O=C(O)CCCCCO
4. NC(=O)Nc1cc(O)ccc1N=Nc1ccc(S(=O)(=O)Nc2ccccn2)cc1
5. CC(=O)OC1C/C(C)=C/CCC(C)/C=C/C2(C)CCC(C(C)(C)O)C12 (configuration not stated)
6. COc1ccc(/C=C2\SC(c3ccc(OC)cc3)N(NC(=O)Cc3ccccc3)C2=O)cc1 (configuration not stated)

1: > 31.6 µM; 2: > 100 µM; 3: > 100 µM; 4: > 100 µM; 5: 88.6 µM; 6: > 100 µM

Would you mind listing TGI for each of the following compounds?
1. O=C(O)C1=NNC(C(=O)O)=NN1
2. CC(=O)C1C(=O)C(=O)N(c2ccccc2N2C(=O)C(=O)C(C(C)=O)C2=O)C1=O (configuration not stated)
3. CC[N+]1(C)CCC(O)(c2ccccc2)C(C(=O)c2ccccc2)C1 (configuration not stated)
4. COc1c(NC(=O)CC(C)=O)[c]([Hg][O]C(C)=O)c(OC)c(Cl)[c]1[Hg][O]C(C)=O
5. C/C(=N\NC(=O)c1ccccc1O)c1cccc(/C(C)=N/NC(=O)c2ccccc2O)n1
6. CCOC(=O)C(Cc1ccccc1)NC(=O)OC(C)(C)C (configuration not stated)
7. CCC1(C(=O)OC)CCc2c(OC)ccc(OC)c2C1=O (configuration not stated)
8. Nc1nc(N)c(N=O)c(Nc2ccc(I)cc2)n1

1: > 100 µM; 2: > 100 µM; 3: 36 µM; 4: 25.1 µM; 5: > 74 µM; 6: > 100 µM; 7: > 100 µM; 8: > 100 µM

###

I'd appreciate it if you could supply TGI values for the items below.
system: HT29 colon; experiment: NCI tumour cell line growth inhibition, 48 h
Where a SMILES comes first, the peptide text is derived from it.

Here's what some known entries look like.
molecule	readout-kind	obs-value
C[C@]12CCC3c4ccc(O)cc4CCC3C1Cc1ccc(O)cc12 (stereo not given in full)	TGI	20.6 µM
N#CCN1CCOCCOCCN(CC#N)CCOCCOCC1	TGI	> 100 µM
COc1ccc(OC)c(C#Cc2ccc(OC)c(C(=O)NCCc3ccc(F)cc3)c2)c1	TGI	> 100 µM

Would you mind listing TGI for each of the following molecules?
1. Cc1ccc(C2(O)CC(c3ccc([N+](=O)[O-])o3)=NN2C(=O)COc2ccccc2Cl)cc1 (stereo not given)
2. C/C1=C\[C@H](C)C[C@H](C)OC(=O)C[C@H](c2ccc(O)cc2)NC(=O)[C@H](Cc2ccc(O)c(Br)c2)N(C)C(=O)[C@H](C)NC(=O)[C@@H](C)C1
3. NNc1ccccc1Cl
4. C[n+]1ccc(-c2cc[n+](C)cc2)cc1
5. O=Cc1ccc(Oc2c3ccccc3nc3occc23)cc1
6. CC(=O)NC(CS)C(=O)NC(CO)C(=O)NC(CO)C(=O)NC(Cc1c[nH]c2ccccc12)C(=O)N1CCCC1C(=O)NC(CO)C(=O)NC(Cc1c[nH]c2ccccc12)C(=O)NC(Cc1c[nH]cn1)C(=O)NC(CO)C(=O)NC(Cc1c[nH]c2ccccc12)C(=O)NCC(=O)NCC(=O)NC(CC(=O)O)C(=O)NC(CCC(N)=O)C(=O)NC(CCCCN)C(=O)NC(Cc1ccccc1)C(=O)NC(CCCNC(=N)N)C(=O)NC(CCCCN)C(N)=O (stereo not given) (Ac-CSSWPSWHSWGGDQKFRK-NH2; configuration not given here)

> 42 µM
> 25 µM
> 100 µM
> 81.9 µM
61.9 µM
> 25 µM

For this molecule ( CCN(CC)CCn1c2cc3c(cc2c(=O)c2cccnc21)OCO3 ), measured TGI is > 10 µM

###

tested on: LXFL 529 NSCLC; assay: NCI tumour cell line growth inhibition, 48 h
readout-kind: TGI

compound	obs-value
CCOC(=O)C(Cc1ccccc1)NC(=O)OC(C)(C)C (stereo unspecified)	> 100 µM

Would you mind listing TGI for each of the following compounds?
1. CC(=O)OC1C/C(C)=C/CCC(C)/C=C/C2(C)CCC(C(C)(C)O)C12 (stereo unspecified)
2. CC1OC(OC2CCCc3c(O)c4c(c(O)c32)C(=O)c2ccccc2C4=O)CC(N)C1O (stereo unspecified)
3. Cc1ccccc1-c1c(N)nc(N)nc1C(=O)Nc1nccs1

["> 100 µM", "2.94 µM", "> 100 µM"]

Would you mind listing TGI for each of the following compounds?
1. NC(=O)Nc1cc(O)ccc1N=Nc1ccc(S(=O)(=O)Nc2ccccn2)cc1
2. CCc1ccc(Nc2cc(=O)[nH]c(=S)n2C)cc1

> 100 µM
> 100 µM
